# TEST SYSTEM: UniProtKB P56817
# ASSAY REMARKS: In vitro BACE1 cell-based assay (Aβ40 in conditioned medium of cells stably expressing APP, HTRF)
# PARTICULARS: Aβ40 in conditioned media after 24 h incubation
# Sequence (P56817 46-501, species assumed): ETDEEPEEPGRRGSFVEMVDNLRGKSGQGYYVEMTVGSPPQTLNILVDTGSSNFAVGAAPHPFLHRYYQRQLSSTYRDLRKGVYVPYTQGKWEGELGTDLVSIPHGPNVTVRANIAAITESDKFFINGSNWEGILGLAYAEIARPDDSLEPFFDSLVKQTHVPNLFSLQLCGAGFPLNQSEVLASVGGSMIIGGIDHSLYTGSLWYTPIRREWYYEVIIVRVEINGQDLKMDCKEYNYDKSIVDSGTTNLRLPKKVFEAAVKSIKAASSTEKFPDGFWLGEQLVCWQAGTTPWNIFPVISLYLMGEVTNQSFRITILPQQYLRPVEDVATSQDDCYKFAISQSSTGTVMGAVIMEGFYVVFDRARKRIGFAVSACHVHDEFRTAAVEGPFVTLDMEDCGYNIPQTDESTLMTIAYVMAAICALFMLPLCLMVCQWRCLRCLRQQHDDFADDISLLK
pIC50: −log10 of the molar value.
pIC50 for assorted molecules
ATTRIBUTE MEASURED: pIC50

INSERT INTO assay_data (molecule, reported_measurement) VALUES
  ('CN1C(N)=N[C@](C)(c2cc(/C=C(\F)c3ncc4c(n3)OCCO4)ccc2F)CS1(=O)=O [Example 234]', 7.00),
  ('CN1C(N)=N[C@](C)(c2cc(/C=C(\F)c3cnc(OCC4CCC4)cn3)ccc2F)CS1(=O)=O [Example 174]', 5.85),
  ('CC1(C)C(N)=N[C@](C)(c2cc(/C=C(\F)c3cnc(Cl)cn3)cnc2F)CS1(=O)=O [Example 203]', 6.71),
  ('CC1(C)C(N)=N[C@](C)(c2cc(/C=C(\F)c3ccc(F)cn3)ccc2F)CS1(=O)=O [Example 262]', 6.74);

---

Please consider the recorded IC50 for Cathepsin D (CatD) (Homo sapiens (Human), UniProt P07339) in what follows.
ATTRIBUTE MEASURED: IC50 (µM)

INSERT INTO results (molecule_smiles, attribute_measured, readout_units, value_prefix, reported_measurement) VALUES
  ('CC1(C)C(N)=N[C@](C)(c2cc(/C=C(\F)c3cnc(Cl)cn3)ccc2F)C(F)(F)S1(=O)=O', 'IC50', 'µM', '=', 62.2),
  ('CN1C(N)=N[C@](C)(c2cc(/C=C(\F)c3ccc(OC(F)(F)F)cn3)ccc2F)CS1(=O)=O', 'IC50', 'µM', '=', 54.4),
  ('C[C@@]1(c2cc(/C=C(\F)c3ccc(Cl)cn3)ccc2F)CS(=O)(=O)C2(CCC2)C(N)=N1', 'IC50', 'µM', '=', 91),
  ('CN1C(N)=N[C@](C)(c2cc(/C=C(\F)c3cc4nccnc4cn3)ccc2F)CS1(=O)=O', 'IC50', 'µM', '>', 400);

---

# TEST SYSTEM: human recombinant BACE2 (Homo sapiens (Human), UniProt Q9Y5Z0)
# Sequence (Q9Y5Z0 63-518): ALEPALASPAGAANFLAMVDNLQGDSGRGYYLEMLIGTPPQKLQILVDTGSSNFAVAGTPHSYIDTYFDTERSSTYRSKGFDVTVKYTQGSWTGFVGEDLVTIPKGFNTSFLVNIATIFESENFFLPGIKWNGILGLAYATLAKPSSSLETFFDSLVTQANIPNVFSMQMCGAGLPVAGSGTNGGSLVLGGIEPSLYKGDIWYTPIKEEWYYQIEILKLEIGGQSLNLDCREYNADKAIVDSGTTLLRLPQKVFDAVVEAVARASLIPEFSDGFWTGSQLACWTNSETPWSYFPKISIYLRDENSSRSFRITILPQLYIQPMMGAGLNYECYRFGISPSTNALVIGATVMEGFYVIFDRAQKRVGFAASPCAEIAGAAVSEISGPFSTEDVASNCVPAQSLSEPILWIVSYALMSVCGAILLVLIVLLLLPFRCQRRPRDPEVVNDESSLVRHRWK
# ASSAY REMARKS: In vitro enzymatic BACE2 FRET assay
# Type: biochemical
# PARTICULARS: read-out: BACE2 Enzyme IC50
pIC50: −log10 of the molar value.
ATTRIBUTE MEASURED: pIC50

INSERT INTO assay_data (compound, reported_measurement) VALUES
  ('Cc1nnc(COc2cnc(/C(F)=C/c3ccc(F)c([C@@]4(C)N=C(N)[C@@]5(CF)CC[C@@H]4S5(=O)=O)c3)cn2)o1', 6.74),
  ('CC#C[C@@H](CC)Oc1cnc(/C(F)=C/c2ccc(F)c([C@]3(C)CS(=O)(=O)C(C)(C)C(N)=N3)c2)cn1 (single isomer, unassigned)', 6.43),
  ('CN1C(N)=N[C@](C)(c2cc(/C=C(\F)c3cnc(OCC4CC4)cn3)ccc2F)CS1(=O)=O', 6.65);

---

# TEST SYSTEM: human recombinant BACE2 (Homo sapiens (Human), UniProt Q9Y5Z0)
# ASSAY REMARKS: In vitro enzymatic BACE2 FRET assay
# PARTICULARS: read-out: BACE2 Enzyme IC50
pIC50: −log10 of the molar value.
ATTRIBUTE MEASURED: pIC50

INSERT INTO results (molecule, attribute_measured, reported_measurement) VALUES
  ('CC#CCOc1cnc(/C(F)=C/c2ccc(F)c([C@@]3(C)N=C(N)[C@@]4(CF)CC[C@@H]3S4(=O)=O)c2)cn1', 'pIC50', 7.36),
  ('CC1(C)C(N)=N[C@@]2(c3ccc(/C=C(\F)c4ccc(C#N)cn4)cc3F)COC[C@H]2S1(=O)=O', 'pIC50', 7.92),
  ('CN1C(N)=N[C@](C)(c2cc(/C=C(\F)c3cc(C#N)c(Cl)cn3)ccc2F)CS1(=O)=O', 'pIC50', 7.03),
  ('C#CCOc1cnc(/C(F)=C/c2ccc(F)c([C@@]3(C)N=C(N)N(C)S(=O)(=O)C34CC4)c2)cn1', 'pIC50', 6.21),
  ('CC1(C)C(N)=N[C@](C)(c2cc(/C=C(\F)c3cnc(OCC4CCCCC4)cn3)ccc2F)CS1(=O)=O', 'pIC50', 6.81),
  ('CCC#C[C@H](C)Oc1cnc(/C(F)=C/c2ccc(F)c([C@]3(C)CS(=O)(=O)C(C)(C)C(N)=N3)c2)cn1 (single isomer, unassigned)', 'pIC50', 6.63),
  ('C[C@H](O)COc1cnc(/C(F)=C/c2ccc(F)c([C@]3(C)CS(=O)(=O)C(C)(C)C(N)=N3)c2)cn1', 'pIC50', 6.42);

---

# TEST SYSTEM: BACE1 (Homo sapiens (Human))
# ASSAY REMARKS: In vitro enzymatic BACE1 FRET assay
# Type: biochemical
# PARTICULARS: read-out: BACE1 Enzyme IC50
# Sequence (P56817 46-501): as the sequence (P56817 46-501, species assumed) above
ATTRIBUTE MEASURED: IC50 (nM)

INSERT INTO measurements (compound, test_system, reported_measurement) VALUES
  ('CC1(C)C(N)=N[C@](C)(c2cc(/C=C(\F)c3cnc(OCCn4cc(Br)cn4)cn3)ccc2F)CS1(=O)=O', 'BACE1 (Homo sapiens (Human))', 96),
  ('CN1C(N)=N[C@](C)(c2cc(/C=C(\F)c3cnc(OCC4COC4)cn3)ccc2F)CS1(=O)=O', 'BACE1 (Homo sapiens (Human))', 176),
  ('C#C[C@@H](CC)Oc1cnc(/C(F)=C/c2ccc(F)c([C@]3(C)CS(=O)(=O)C(C)(C)C(N)=N3)c2)cn1 (single isomer, unassigned)', 'BACE1 (Homo sapiens (Human))', 208);

---

pIC50 for assorted compounds
# TEST SYSTEM: BACE1 (Homo sapiens (Human), UniProt P56817)
# ASSAY REMARKS: In vitro enzymatic BACE1 FRET assay
# Assay type: biochemical
# PARTICULARS: read-out: BACE1 Enzyme IC50
pIC50: −log10 of the molar value.
ATTRIBUTE MEASURED: pIC50

INSERT INTO assay_data (compound, test_system, reported_measurement) VALUES
  ('CC1(C)C(N)=N[C@](C)(c2cc(/C=C(\F)c3cc4c(cn3)OCCO4)ccc2F)CS1(=O)=O', 'BACE1 (Homo sapiens (Human), UniProt P56817)', 6.53),
  ('CN1C(N)=N[C@](C)(c2cc(/C=C(\F)c3cnc(C#N)cn3)ccc2F)C2(CC2)S1(=O)=O', 'BACE1 (Homo sapiens (Human), UniProt P56817)', 8.22),
  ('CN1C(N)=N[C@](C)(c2cc(/C=C(\F)c3ccc(C(F)(F)F)cn3)ccc2F)CS1(=O)=O', 'BACE1 (Homo sapiens (Human), UniProt P56817)', 8.22),
  ('CC1(C)C(N)=N[C@](CF)(c2cc(/C=C(\F)c3cnc(Cl)cn3)ccc2F)CS1(=O)=O', 'BACE1 (Homo sapiens (Human), UniProt P56817)', 7.22),
  ('CC#C[C@@H](CC)Oc1cnc(/C(F)=C/c2ccc(F)c([C@]3(C)CS(=O)(=O)C(C)(C)C(N)=N3)c2)cn1 (single isomer, unassigned)', 'BACE1 (Homo sapiens (Human), UniProt P56817)', 6.95),
  ('CC1(C)C(N)=N[C@](C)(c2cc(/C=C(\F)c3ccc(C#N)cn3)ccc2F)CS1(=O)=O', 'BACE1 (Homo sapiens (Human), UniProt P56817)', 8.70),
  ('CN1C(N)=N[C@](C)(c2cc(/C=C(\F)c3ccc(F)cn3)cc(F)c2F)CS1(=O)=O', 'BACE1 (Homo sapiens (Human), UniProt P56817)', 7.12);

---

# TEST SYSTEM: BACE1 (Homo sapiens (Human), UniProt P56817)
# ASSAY REMARKS: In vitro BACE1 cell-based assay (Aβ40 in conditioned medium of cells stably expressing APP, HTRF)
# PARTICULARS: Aβ40 in conditioned media after 24 h incubation
ATTRIBUTE MEASURED: IC50 (µM)

INSERT INTO results (compound, readout_units, reported_measurement) VALUES
  ('CC1(C)C(N)=N[C@](C)(c2cc(/C=C(\F)c3ccc(C#N)cn3)ccc2F)CS1(=O)=O', 'µM', 0.004),
  ('CC1(C)C(N)=N[C@](C)(c2cc(/C=C(\F)c3cnc(OCc4ncco4)cn3)ccc2F)CS1(=O)=O', 'µM', 0.005),
  ('C#C[C@H](CC)Oc1cnc(/C(F)=C/c2ccc(F)c([C@]3(C)CS(=O)(=O)C(C)(C)C(N)=N3)c2)cn1 (single isomer, unassigned)', 'µM', 0.022),
  ('CC#C[C@H](CC)Oc1cnc(/C(F)=C/c2ccc(F)c([C@]3(C)CS(=O)(=O)C(C)(C)C(N)=N3)c2)cn1 (single isomer, unassigned)', 'µM', 0.002),
  ('C#CCOc1cnc(/C(F)=C/c2ccc(F)c([C@]3(CF)CS(=O)(=O)C(C)(C)C(N)=N3)c2)cn1', 'µM', 0.074),
  ('CC1(C)C(N)=N[C@](C)(c2cc(/C=C(\F)c3cc4c(cn3)OCCO4)ccc2F)[C@@H](F)S1(=O)=O (single isomer, unassigned)', 'µM', 3.58),
  ('C[C@@H](CO)Oc1cnc(/C(F)=C/c2ccc(F)c([C@]3(C)CS(=O)(=O)C(C)(C)C(N)=N3)c2)cn1', 'µM', 0.529),
  ('CC1(C)C(N)=N[C@](C)(c2cc(/C=C(\F)c3ncc(C#N)cc3Cl)ccc2F)CS1(=O)=O', 'µM', 0.035),
  ('CC#C[C@@H](C)Oc1cnc(/C(F)=C/c2ccc(F)c([C@]3(C)CS(=O)(=O)C(C)(C)C(N)=N3)c2)cn1 (single isomer, unassigned)', 'µM', 2.53),
  ('CN1C(N)=N[C@](C)(c2cc(/C=C(\F)c3ccc(Br)cn3)cc(F)c2F)CS1(=O)=O', 'µM', 0.023),
  ('CC1(C)C(N)=N[C@](C)(c2cc(/C=C/c3ccc(Cl)cc3)ccc2F)CS1(=O)=O', 'µM', 0.442),
  ('Cc1noc(COc2cnc(/C(F)=C/c3ccc(F)c([C@@]4(C)N=C(N)[C@@]5(CF)CC[C@@H]4S5(=O)=O)c3)cn2)n1', 'µM', 0.027),
  ('C[C@]1(c2cc(/C=C(\F)c3ccc(Br)cn3)ccc2F)N=C(N)C2(CF)CC[C@@H]1S2(=O)=O (stereo in doubt)', 'µM', 0.079);
